Tested on: Streptococcus pyogenes C203
experiment_description: broth micro-dilution MIC
Type: cell-based
Description: The MIC's were determined using a standard broth micro-dilution assay.
parameter: MIC

Example entries begin here.
>  <molecule>
CCCCCCCCCCCCOc1ccc(CNC2(C)CC(OC3C(Oc4c5cc6cc4Oc4ccc(cc4Cl)C(OC4CC(C)(N)C(O)C(C)O4)C4NC(=O)C(NC(=O)C6NC(=O)C(CC(N)=O)NC(=O)C(NC(=O)C(CC(C)C)NC)C(O)c6ccc(c(Cl)c6)O5)c5ccc(O)c(c5)-c5c(O)cc(O)cc5C(C(=O)O)NC4=O)OC(CO)C(O)C3O)OC(C)C2O)cc1 (stereo not drawn) [Compound 10]

>  <MIC>
≤ 0.06 µg/mL

$$$$
>  <molecule>
CN[C@H](CC(C)C)C(=O)N[C@H]1C(=O)N[C@@H](CC(N)=O)C(=O)N[C@H]2C(=O)N[C@H]3C(=O)N[C@H](C(=O)N[C@H](C(=O)O)c4cc(O)cc(O)c4-c4cc3ccc4O)[C@H](O[C@H]3C[C@](C)(N)[C@@H](O)[C@H](C)O3)c3ccc(c(Cl)c3)Oc3cc2cc(c3O[C@@H]2O[C@H](CO)[C@@H](O)[C@H](O)[C@H]2O[C@H]2C[C@](C)(NCc3ccc(-c4cccc(F)c4)cc3)[C@@H](O)[C@H](C)O2)Oc2ccc(cc2Cl)[C@H]1O [Compound 92]

>  <MIC>
≤ 0.06 µg/mL

$$$$

Give the measured MIC for CNC(CC(C)C)C(=O)NC1C(=O)NC(CC(N)=O)C(=O)NC2C(=O)NC3C(=O)NC(C(=O)NC(C(=O)O)c4cc(O)cc(O)c4-c4cc3ccc4O)C(OC3CC(C)(N)C(O)C(C)O3)c3ccc(c(Cl)c3)Oc3cc2cc(c3OC2OC(CO)C(O)C(O)C2OC2CC(C)(NCc3cncc(-c4ccccc4)c3)C(O)C(C)O2)Oc2ccc(cc2Cl)C1O (stereo not drawn) [Compound 151]
≤ 0.06 µg/mL

###

Tested on: vancomycin-resistant enterococci
experiment_description: broth micro-dilution, mean geometric MIC
Format: cell-based, Enterococcus faecium and Enterococcus faecalis
test_conditions: enterococci, 24-hour incubation
parameter: mean geometric MIC, Vancomycin Resistant Strains

>  <molecule>
CN[C@H](CC(C)C)C(=O)N[C@H]1C(=O)N[C@@H](CC(N)=O)C(=O)N[C@H]2C(=O)N[C@H]3C(=O)N[C@H](C(=O)N[C@H](C(=O)O)c4cc(O)cc(O)c4-c4cc3ccc4O)[C@H](O[C@H]3C[C@](C)(N)[C@@H](O)[C@H](C)O3)c3ccc(c(Cl)c3)Oc3cc2cc(c3O[C@@H]2O[C@H](CO)[C@@H](O)[C@H](O)[C@H]2O[C@H]2C[C@](C)(NCc3ccc(Oc4ccc(Cl)cc4)c([N+](=O)[O-])c3)[C@@H](O)[C@H](C)O2)Oc2ccc(cc2Cl)[C@H]1O

>  <measured_result>
0.50 µg/mL

$$$$
>  <molecule>
CNC(CC(C)C)C(=O)NC1C(=O)NC(CC(N)=O)C(=O)NC2C(=O)NC3C(=O)NC(C(=O)NC(C(=O)O)c4cc(O)cc(O)c4-c4cc3ccc4O)C(OC3CC(C)(NCc4c5ccccc5c(C)c5ccccc45)C(O)C(C)O3)c3ccc(c(Cl)c3)Oc3cc2cc(c3OC2OC(CO)C(O)C(O)C2OC2CC(C)(NCc3c4ccccc4c(C)c4ccccc34)C(O)C(C)O2)Oc2ccc(cc2Cl)C1O (stereo not drawn)

>  <measured_result>
32 µg/mL

$$$$

# context switch: different molecule, same mean geometric MIC, Vancomycin Resistant Strains
Give mean geometric MIC, Vancomycin Resistant Strains for this entry on vancomycin-resistant enterococci: CN[C@H](CC(C)C)C(=O)N[C@H]1C(=O)N[C@@H](CC(N)=O)C(=O)N[C@H]2C(=O)N[C@H]3C(=O)N[C@H](C(=O)N[C@H](C(=O)O)c4cc(O)cc(O)c4-c4cc3ccc4O)[C@H](O[C@H]3C[C@](C)(N)[C@@H](O)[C@H](C)O3)c3ccc(c(Cl)c3)Oc3cc2cc(c3O[C@@H]2O[C@H](CO)[C@@H](O)[C@H](O)[C@H]2O[C@H]2C[C@](C)(NCc3ccc(-c4ccc(C)cc4)cc3)[C@@H](O)[C@H](C)O2)Oc2ccc(cc2Cl)[C@H]1O
0.71 µg/mL

###

System: vancomycin-resistant enterococci
experiment_description: broth micro-dilution, mean geometric MIC
Format: cell-based, Enterococcus faecium and Enterococcus faecalis
test_conditions: enterococci, 24-hour incubation
Recorded measurements of mean geometric MIC, Vancomycin Resistant Strains, one per entry
Response body: numeric value in µg/mL, unit text excluded.

Example entries begin here.
>  <compound>
CNC(CC(C)C)C(=O)NC1C(=O)NC(CC(N)=O)C(=O)NC2C(=O)NC3C(=O)NC(C(=O)NC(C(=O)O)c4cc(O)cc(O)c4-c4cc3ccc4O)C(OC3CC(C)(N)C(O)C(C)O3)c3ccc(c(Cl)c3)Oc3cc2cc(c3OC2OC(CO)C(O)C(O)C2OC2CC(C)(NCc3ccc(-c4ccc(OC)cc4)cc3)C(O)C(C)O2)Oc2ccc(cc2Cl)C1O (centres unmarked) [Compound 54]

>  <unit_symbol>
µg/mL

>  <measured_result>
1.7

$$$$
>  <compound>
CNC(CC(C)C)C(=O)NC1C(=O)NC(CC(N)=O)C(=O)NC2C(=O)NC3C(=O)NC(C(=O)NC(C(=O)O)c4cc(O)cc(O)c4-c4cc3ccc4O)C(OC3CC(C)(N)C(O)C(C)O3)c3ccc(c(Cl)c3)Oc3cc2cc(c3OC2OC(CO)C(O)C(O)C2OC2CC(C)(NCc3ccc(C=Cc4ccccc4)cc3)C(O)C(C)O2)Oc2ccc(cc2Cl)C1O (centres unmarked) [Compound 29]

>  <unit_symbol>
µg/mL

>  <measured_result>
0.21

$$$$
>  <compound>
CN[C@@H](CC(C)C)C(=O)N[C@H]1C(=O)N[C@H](CC(N)=O)C(=O)N[C@H]2C(=O)N[C@H]3C(=O)N[C@@H](C(=O)NC(C(=O)O)c4cc(O)cc(O)c4-c4cc3ccc4O)[C@@H](O[C@H]3C[C@](C)(N)[C@H](O)[C@@H](C)O3)c3ccc(cc3)Oc3cc2cc(c3O[C@H]2O[C@@H](CO)[C@@H](O)[C@H](O)[C@@H]2O[C@H]2C[C@](C)(N)[C@H](O)[C@@H](C)O2)Oc2ccc(cc2)[C@@H]1O (some centres unmarked) [Compound A82846C, A82846C, reference compound]

>  <unit_symbol>
µg/mL

>  <measured_result>
353

$$$$
>  <compound>
CNC(CC(C)C)C(=O)NC1C(=O)NC(CC(N)=O)C(=O)NC2C(=O)NC3C(=O)NC(C(=O)NC(C(=O)O)c4cc(O)cc(O)c4-c4cc3ccc4O)C(OC3CC(C)(N)C(O)C(C)O3)c3ccc(c(Cl)c3)Oc3cc2cc(c3OC2OC(CO)C(O)C(O)C2OC2CC(C)(NCc3cncc(-c4ccccc4)c3)C(O)C(C)O2)Oc2ccc(cc2Cl)C1O (centres unmarked) [Compound 101]

>  <unit_symbol>
µg/mL

>  <measured_result>
4.0

$$$$
>  <compound>
CNC(CC(C)C)C(=O)NC1C(=O)NC(CC(N)=O)C(=O)NC2C(=O)NC3C(=O)NC(C(=O)NC(C(=O)O)c4cc(O)cc(O)c4-c4cc3ccc4O)C(OC3CC(C)(N)C(O)C(C)O3)c3ccc(c(Cl)c3)Oc3cc2cc(c3OC2OC(CO)C(O)C(O)C2OC2CC(C)(NCc3ccc(-c4ccc(-c5ccccc5)cc4)cc3)C(O)C(C)O2)Oc2ccc(cc2Cl)C1O (centres unmarked) [Compound 36]

>  <unit_symbol>
µg/mL

>  <measured_result>
0.25

$$$$

Give the measured mean geometric MIC, Vancomycin Resistant Strains for CNC(CC(C)C)C(=O)NC1C(=O)NC(CC(N)=O)C(=O)NC2C(=O)NC3C(=O)NC(C(=O)NC(C(=O)O)c4cc(O)cc(O)c4-c4cc3ccc4O)C(OC3CC(C)(N)C(O)C(C)O3)c3ccc(c(Cl)c3)Oc3cc2cc(c3OC2OC(CO)C(O)C(O)C2OC2CC(C)(NCc3ccc(OC4CCCCC4)cc3)C(O)C(C)O2)Oc2ccc(cc2Cl)C1O (centres unmarked) [Compound 124]
0.84

Give the measured mean geometric MIC, Vancomycin Resistant Strains for CNC(CC(C)C)C(=O)NC1C(=O)NC(CC(N)=O)C(=O)NC2C(=O)NC3C(=O)NC(C(=O)NC(C(=O)O)c4cc(O)cc(O)c4-c4cc3ccc4O)C(OC3CC(C)(N)C(O)C(C)O3)c3ccc(c(Cl)c3)Oc3cc2cc(c3OC2OC(CO)C(O)C(O)C2OC2CC(C)(NCc3cccc(OC(=O)C4CCCCC4)c3)C(O)C(C)O2)Oc2ccc(cc2Cl)C1O (centres unmarked) [Compound 165]
4.0

###

Tested on: vancomycin-susceptible enterococci
experiment_description: broth micro-dilution, mean geometric MIC
Format: cell-based, Enterococcus faecium and Enterococcus faecalis
test_conditions: enterococci, 24-hour incubation
parameter: mean geometric MIC, Vancomycin Sensitive Strains

Example entries begin here.
>  <molecule>
CNC(CC(C)C)C(=O)NC1C(=O)NC(CC(N)=O)C(=O)NC2C(=O)NC3C(=O)NC(C(=O)NC(C(=O)O)c4cc(O)cc(O)c4-c4cc3ccc4O)C(OC3CC(C)(N)C(O)C(C)O3)c3ccc(c(Cl)c3)Oc3cc2cc(c3OC2OC(CO)C(O)C(O)C2OC2CC(C)(NCc3ccc4c(c3O)Cc3ccccc3-4)C(O)C(C)O2)Oc2ccc(cc2Cl)C1O (centres unmarked)

>  <system_under_test>
vancomycin-susceptible enterococci

>  <measured_result>
0.33 µg/mL

$$$$
>  <molecule>
CN[C@H](CC(C)C)C(=O)N[C@H]1C(=O)N[C@@H](CC(N)=O)C(=O)N[C@H]2C(=O)N[C@H]3C(=O)N[C@H](C(=O)N[C@H](C(=O)O)c4cc(O)cc(O)c4-c4cc3ccc4O)[C@H](O[C@H]3C[C@](C)(N)[C@@H](O)[C@H](C)O3)c3ccc(cc3)Oc3cc2cc(c3O[C@@H]2O[C@H](CO)[C@@H](O)[C@H](O)[C@H]2O[C@H]2C[C@](C)(N)[C@@H](O)[C@H](C)O2)Oc2ccc(cc2Cl)[C@H]1O [Compound A82846A, A82846A, reference compound]

>  <system_under_test>
vancomycin-susceptible enterococci

>  <measured_result>
1.7 µg/mL

$$$$
>  <molecule>
CNC(CC(C)C)C(=O)NC1C(=O)NC(CC(N)=O)C(=O)NC2C(=O)NC3C(=O)NC(C(=O)NC(C(=O)O)c4cc(O)cc(O)c4-c4cc3ccc4O)C(OC3CC(C)(N)C(O)C(C)O3)c3ccc(c(Cl)c3)Oc3cc2cc(c3OC2OC(CO)C(O)C(O)C2OC2CC(C)(NCc3cccc(Oc4ccc(C(F)(F)F)cc4)c3)C(O)C(C)O2)Oc2ccc(cc2Cl)C1O (centres unmarked)

>  <system_under_test>
vancomycin-susceptible enterococci

>  <measured_result>
0.048 µg/mL

$$$$
>  <molecule>
CCCCCOc1ccc(-c2ccc(CNC3(C)CC(OC4C(Oc5c6cc7cc5Oc5ccc(cc5Cl)C(OC5CC(C)(N)C(O)C(C)O5)C5NC(=O)C(NC(=O)C7NC(=O)C(CC(N)=O)NC(=O)C(NC(=O)C(CC(C)C)NC)C(O)c7ccc(c(Cl)c7)O6)c6ccc(O)c(c6)-c6c(O)cc(O)cc6C(C(=O)O)NC5=O)OC(CO)C(O)C4O)OC(C)C3O)cc2)cc1 (centres unmarked)

>  <system_under_test>
vancomycin-susceptible enterococci

>  <measured_result>
0.31 µg/mL

$$$$
>  <molecule>
CNC(CC(C)C)C(=O)NC1C(=O)NC(CC(N)=O)C(=O)NC2C(=O)NC3C(=O)NC(C(=O)NC(C(=O)O)c4cc(O)cc(O)c4-c4cc3ccc4O)C(OC3CC(C)(N)C(O)C(C)O3)c3ccc(c(Cl)c3)Oc3cc2cc(c3OC2OC(CO)C(O)C(O)C2OC2CC(C)(NCc3cccc(OCc4ccc5ccccc5n4)c3)C(O)C(C)O2)Oc2ccc(cc2Cl)C1O (centres unmarked)

>  <system_under_test>
vancomycin-susceptible enterococci

>  <measured_result>
0.14 µg/mL

$$$$

Give the measured mean geometric MIC, Vancomycin Sensitive Strains for CNC(CC(C)C)C(=O)NC1C(=O)NC(CC(N)=O)C(=O)NC2C(=O)NC3C(=O)NC(C(=O)NC(C(=O)O)c4cc(O)cc(O)c4-c4cc3ccc4O)C(OC3CC(C)(N)C(O)C(C)O3)c3ccc(c(Cl)c3)Oc3cc2cc(c3OC2OC(CO)C(O)C(O)C2OC2CC(C)(NCc3ccc(Oc4ccccc4[N+](=O)[O-])cc3)C(O)C(C)O2)Oc2ccc(cc2Cl)C1O (centres unmarked)
0.092 µg/mL

Give the measured mean geometric MIC, Vancomycin Sensitive Strains for CNC(CC(C)C)C(=O)NC1C(=O)NC(CC(N)=O)C(=O)NC2C(=O)NC3C(=O)NC(C(=O)NC(C(=O)O)c4cc(O)cc(O)c4-c4cc3ccc4O)C(OC3CC(C)(NCc4cnc5ccccc5c4)C(O)C(C)O3)c3ccc(c(Cl)c3)Oc3cc2cc(c3OC2OC(CO)C(O)C(O)C2OC2CC(C)(NCc3cnc4ccccc4c3)C(O)C(C)O2)Oc2ccc(cc2Cl)C1O (centres unmarked)
0.33 µg/mL

Give the measured mean geometric MIC, Vancomycin Sensitive Strains for CNC(CC(C)C)C(=O)NC1C(=O)NC(CC(N)=O)C(=O)NC2C(=O)NC3C(=O)NC(C(=O)NC(C(=O)O)c4cc(O)cc(O)c4-c4cc3ccc4O)C(OC3CC(C)(N)C(O)C(C)O3)c3ccc(c(Cl)c3)Oc3cc2cc(c3OC2OC(CO)C(O)C(O)C2OC2CC(C)(NCc3ccc(S(=O)(=O)N4CCCC4)cc3)C(O)C(C)O2)Oc2ccc(cc2Cl)C1O (centres unmarked)
0.76 µg/mL

Give the measured mean geometric MIC, Vancomycin Sensitive Strains for C=CCCCCNC1(C)CC(OC2C(Oc3c4cc5cc3Oc3ccc(cc3Cl)C(OC3CC(C)(N)C(O)C(C)O3)C3NC(=O)C(NC(=O)C5NC(=O)C(CC(N)=O)NC(=O)C(NC(=O)C(CC(C)C)NC)C(O)c5ccc(c(Cl)c5)O4)c4ccc(O)c(c4)-c4c(O)cc(O)cc4C(C(=O)O)NC3=O)OC(CO)C(O)C2O)OC(C)C1O (centres unmarked)
0.57 µg/mL

Give the measured mean geometric MIC, Vancomycin Sensitive Strains for CNC(CC(C)C)C(=O)NC1C(=O)NC(CC(N)=O)C(=O)NC2C(=O)NC3C(=O)NC(C(=O)NC(C(=O)O)c4cc(O)cc(O)c4-c4cc3ccc4O)C(OC3CC(C)(N)C(O)C(C)O3)c3ccc(c(Cl)c3)Oc3cc2cc(c3OC2OC(CO)C(O)C(O)C2OC2CC(C)(NCc3ccc(-c4ccc([N+](=O)[O-])cc4)c([N+](=O)[O-])c3)C(O)C(C)O2)Oc2ccc(cc2Cl)C1O (centres unmarked)
0.036 µg/mL

Give the measured mean geometric MIC, Vancomycin Sensitive Strains for CNC(CC(C)C)C(=O)NC1C(=O)NC(CC(N)=O)C(=O)NC2C(=O)NC3C(=O)NC(C(=O)NC(C(=O)O)c4cc(O)cc(O)c4-c4cc3ccc4O)C(OC3CC(C)(N)C(O)C(C)O3)c3ccc(c(Cl)c3)Oc3cc2cc(c3OC2OC(CO)C(O)C(O)C2OC2CC(C)(NCc3ccc(OC(F)F)cc3)C(O)C(C)O2)Oc2ccc(cc2Cl)C1O (centres unmarked)
0.28 µg/mL
